EC50: recorded values
Test system: recombinant NL4-3 virus (Renilla luciferase in nef, Gag P373S)
Assay: HIV Cell Culture Assay (luciferase reporter virus in MT-2 cells)
Type: cell-based
Conditions: NL43, read-out: EC50 Group
Procedure: MT-2 cells and 293T cells were obtained from the NIH AIDS Research and Reference Reagent Program. […] Luciferase was quantitated using the Dual Luciferase kit from Promega (Madison, Wis.), with modifications to the manufacturer's protocol. […] Fifty (50) μL of the mixture was added to each aspirated well on assay plates and luciferase activity was measured immediately on a Wallac TriLux (Perkin-Elmer). […]

# molecule, assay target, assay value
rows = [
    ("C=C(C)[C@@H]1CC[C@]2(C(=O)NCCNCC(=O)O)CC[C@]3(C)[C@H](CC[C@@H]4[C@@]5(C)CC=C(c6ccc(C(=O)O)cc6)C(C)(C)[C@@H]5CC[C@]43C)[C@@H]12 [Example 81]", "recombinant NL4-3 virus (Renilla luciferase in nef, Gag P373S)", "< 100 nM"),
    ("C=C(C)[C@@H]1CC[C@]2(C(=O)NCC(C)(C)N)CC[C@]3(C)[C@H](CC[C@@H]4[C@@]5(C)CC=C(c6ccc(C(=O)O)cc6)C(C)(C)[C@@H]5CC[C@]43C)[C@@H]12 [Example 38]", "recombinant NL4-3 virus (Renilla luciferase in nef, Gag P373S)", "< 100 nM"),
    ("C=C(C)[C@@H]1CC[C@]2(C(=O)NCCCN3CCOCC3)CC[C@]3(C)[C@H](CC[C@@H]4[C@@]5(C)CC=C(c6ccc(C(=O)O)cc6)C(C)(C)[C@@H]5CC[C@]43C)[C@@H]12 [Example 32]", "recombinant NL4-3 virus (Renilla luciferase in nef, Gag P373S)", "< 100 nM"),
    ("C=C(C)[C@@H]1CC[C@]2(C(=O)NCc3ccoc3)CC[C@]3(C)[C@H](CC[C@@H]4[C@@]5(C)CC=C(c6ccc(C(=O)O)cc6)C(C)(C)[C@@H]5CC[C@]43C)[C@@H]12 [Example 126]", "recombinant NL4-3 virus (Renilla luciferase in nef, Gag P373S)", "< 100 nM"),
    ("C=C(C)[C@@H]1CC[C@]2(C(=O)N(C)Cc3ccccc3)CC[C@]3(C)[C@H](CC[C@@H]4[C@@]5(C)CC=C(c6ccc(C(=O)O)cc6)C(C)(C)[C@@H]5CC[C@]43C)[C@@H]12 [Example 18]", "recombinant NL4-3 virus (Renilla luciferase in nef, Gag P373S)", "> 100 nM"),
]

Q. Any idea what EC50 was measured for C=C(C)[C@@H]1CC[C@]2(C(=O)NCCN3CCC(F)(F)CC3)CC[C@]3(C)[C@H](CC[C@@H]4[C@@]5(C)CC=C(c6ccc(C(=O)O)c(F)c6)C(C)(C)[C@@H]5CC[C@]43C)[C@@H]12 [Example 117] ?
A. < 100 nM

Q. One more molecule: C=C(C)[C@@H]1CC[C@]2(C(=O)NCCN(CC(=O)O)Cc3ccccc3)CC[C@]3(C)[C@H](CC[C@@H]4[C@@]5(C)CC=C(c6ccc(C(=O)O)cc6)C(C)(C)[C@@H]5CC[C@]43C)[C@@H]12 [Example 107]
A. < 100 nM

Q. Try the molecule C=C(C)[C@@H]1CC[C@]2(C(=O)NCCN3CCS(=O)(=O)CC3)CC[C@]3(C)[C@H](CC[C@@H]4[C@@]5(C)CC=C(c6ccc(C(=O)O)cc6F)C(C)(C)[C@@H]5CC[C@]43C)[C@@H]12 [Example 120]
A. < 100 nM

Q. Please answer likewise for C=C(C)[C@@H]1CC[C@]2(C(=O)NCCCN(CC)CCCC(=O)O)CC[C@]3(C)[C@H](CC[C@@H]4[C@@]5(C)CC=C(c6ccc(C(=O)O)cc6)C(C)(C)[C@@H]5CC[C@]43C)[C@@H]12 [Example 101]
A. < 100 nM
